The following compounds are listed with their measured Percent Effect values.
ASSAYED SYSTEM: Chromo domain-containing protein 1 (Saccharomyces cerevisiae (strain ATCC 204508 / S288c) (Baker's yeast))
METHOD SUMMARY: ScCHD-1 Enzyme Inhibition Assay; note: in the data most compounds retested in dose-response had high values
Type: functional
Parameters: scale not given: direction of the effect not stated beside the values
TEST PARAMETERS: 30 µM
Please give a number only; it is taken to be in %.

| COMPOUND | DATA VALUE |
| --- | --- |
| O=C(c1cccc(CNCC2CNc3ccnn3C2)c1)N1CCCC1 (stereo not given) | -18.2 |
| COc1ccc(C(CNC(=O)Nc2cn[nH]c2)N2CCOCC2)cc1 (stereo not given) | -20.4 |
| Cc1ccc(C(CNCC2CC2)N2CCOCC2)s1 (stereo not given) | -6.06 |
| CCc1ccc(C(=O)O)cc1S(=O)(=O)Nc1ccc(F)c(C#N)c1 | -2.76 |
| CC(C)c1nc2n(n1)CC(NCc1nc(-c3cccnc3)no1)CC2 (stereo not given) | -23.3 |

**Q:** In one line, give reported Percent Effect of the entry CCN(CC1CN(Cc2ncc[nH]2)CCO1)c1cccnn1 (stereo not given) .
**A:** -4.63

**Q:** Kindly indicate its recorded Percent Effect. Item: O=C1OC2(CCN(C3CCCOC3)CC2)CN1CCc1ccccc1 (stereo not given)
**A:** 0.643

**Q:** Report Percent Effect, nothing else, for this compound: "Cc1cc(CN2CCOCS2(=O)=O)ccc1F"
**A:** -2.56

**Q:** Query Percent Effect for Fc1ccc(-c2cnc(CN3CCCC3Cn3cccn3)o2)cc1 (stereo not given)
**A:** -1.62

**Q:** Tell me Percent Effect reported for Cn1cccc1CN1CCC2(CCCN(C(=O)Cc3cccnc3)C2)C1 (stereo not given)
**A:** -7.07

----------
Test system: Trypanosoma cruzi
METHOD SUMMARY: Trypanosoma cruzi phosphomannomutase and mannose-1-phosphate guanylyltransferase assay
Format: functional
Set-up: scale not given: direction of the effect not stated beside the values
TEST PARAMETERS: 10 µM
REPORTED PROPERTY: Percent Effect (%)
Numeric only. Scale: %

Example compounds with recorded Percent Effect:
| COMPOUND | ASSAYED SYSTEM | VALUE UNITS | DATA VALUE |
| --- | --- | --- | --- |
| Cc1cccc(-c2nc(C)nn2CC(=O)NC2CCCC2)c1 | Trypanosoma cruzi | % | 6.93 |
| O=C(NCc1ccc(-n2cncn2)nc1)c1ccc2c(c1)CCO2 | Trypanosoma cruzi | % | 1.79 |
| Cc1ccc(NC2CCN(C(=O)Cc3cccc(F)c3)CC2)nn1 | Trypanosoma cruzi | % | 7.83 |

Shifting focus to the compound that follows.
**Q:** Note Percent Effect for the compound shown: "CC(=O)Nc1nc(C2CCN(CC(N)=O)CC2)cs1"
**A:** -4.35

----------
Measured Percent Effect by item
ASSAYED SYSTEM: Protein translocase subunit SecA (Escherichia coli (strain K12)) (UniProt P10408)
Sequence (P10408 whole entry): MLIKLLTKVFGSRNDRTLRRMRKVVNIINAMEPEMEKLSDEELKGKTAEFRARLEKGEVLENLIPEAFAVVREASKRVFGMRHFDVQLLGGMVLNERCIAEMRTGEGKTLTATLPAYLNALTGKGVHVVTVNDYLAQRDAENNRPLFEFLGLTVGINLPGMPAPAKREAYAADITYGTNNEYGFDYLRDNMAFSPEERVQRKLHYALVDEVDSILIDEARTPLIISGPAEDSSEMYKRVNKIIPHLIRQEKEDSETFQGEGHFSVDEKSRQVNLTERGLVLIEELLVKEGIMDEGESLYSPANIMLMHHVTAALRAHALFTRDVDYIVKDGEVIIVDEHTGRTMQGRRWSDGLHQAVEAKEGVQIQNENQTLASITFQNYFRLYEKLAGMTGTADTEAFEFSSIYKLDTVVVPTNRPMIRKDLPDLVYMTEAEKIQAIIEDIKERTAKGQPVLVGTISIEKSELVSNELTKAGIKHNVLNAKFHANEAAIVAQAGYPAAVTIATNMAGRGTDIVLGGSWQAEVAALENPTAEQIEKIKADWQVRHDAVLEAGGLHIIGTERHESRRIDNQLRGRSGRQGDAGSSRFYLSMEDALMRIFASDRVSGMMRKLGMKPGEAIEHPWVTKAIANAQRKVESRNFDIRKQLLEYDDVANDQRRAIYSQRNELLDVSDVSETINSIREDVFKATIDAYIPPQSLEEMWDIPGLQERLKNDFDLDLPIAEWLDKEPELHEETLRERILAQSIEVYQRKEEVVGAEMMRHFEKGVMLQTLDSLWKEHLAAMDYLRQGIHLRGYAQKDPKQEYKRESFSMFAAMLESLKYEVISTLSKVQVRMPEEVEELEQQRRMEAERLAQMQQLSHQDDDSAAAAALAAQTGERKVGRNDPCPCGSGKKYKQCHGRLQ
METHOD SUMMARY: Assay to Identify E. coli SecA ATPase Inhibitors
Type: functional
Parameters: scale not given: direction of the effect not stated beside the values
TEST PARAMETERS: 30 µM
Entries with a potency or affinity are not part of this list.
// units = %; emit number, no label

Solved cases (3 shown):
| MOLECULE | DATA VALUE |
| --- | --- |
| CNC(=O)[C@@H]1C[C@H]2CN(C(=O)c3ccco3)C[C@H]2N1C | -1.85 |
| CCn1cc(N2Cc3nc(N)ncc3C2=O)cn1 | -6.38 |
| O=C(NCC1CC1)[C@@H]1CCO[C@@H]2CCN(Cc3ccco3)C[C@H]21 | -1.9 |

**Q:** // Input: CCn1ncc2c1CCCC2NCc1ccc(OC)c(C)c1 (stereo not drawn) . Output its Percent Effect only.
**A:** -7.95
